These measurements were taken from ChEMBL document CHEMBL4266028.

- Tested on: MOLM-14
- experiment.summary: Antiproliferative activity against human MOLM14 cells by Cell-Titer Glo assay
- Assay type: functional, cell-based
- recorded.conditions: Homo sapiens, MOLM-14
pIC50: −log10 of the molar value.
For each of the compounds below, state its pIC50.

>  <compound>
O=C(/C=C/c1ccc(O)c(O)c1)O[C@H](Cc1ccc(O)c(O)c1)C(=O)O [ROSMARINIC ACID]

>  <pIC50>
5.15

$$$$
>  <compound>
COC(=O)[C@@H](Cc1ccc(O)c(O)c1)OC(=O)/C=C/c1ccc(O)c(O)c1/C=C/c1ccc(O)c(O)c1

>  <pIC50>
< 5.00

$$$$
>  <compound>
O=C(O)/C=C/c1ccc(O)c(O)c1 [CAFFEIC ACID]

>  <pIC50>
< 5.00

$$$$
>  <compound>
COC(=O)[C@H](O)Cc1ccc(O)c(O)c1

>  <pIC50>
< 5.00

$$$$
>  <compound>
Nc1ccc(-c2ccc3ncc4ccc(=O)n(-c5cccc(C(F)(F)F)c5)c4c3c2)cn1

>  <pIC50>
> 9.00

$$$$
>  <compound>
O=C1C[C@H]2c3cc(O)c(O)cc3[C@H](c3ccc(O)c(O)c3)[C@H]2O1

>  <pIC50>
5.15

$$$$
>  <compound>
COC(=O)[C@H](O)Cc1ccc2c(c1)O[C@H]([C@H](OC)c1ccc(O)c(O)c1)O2

>  <pIC50>
< 5.00

$$$$

Pending compound:
Entry COC(=O)[C@@H](Cc1ccc(O)c(O)c1)OC(=O)/C=C/c1ccc(O)c(O)c1 [METHYL ROSMARINATE] ; pIC50 = < 5.00

----------
- Tested on: MOLM-14
- experiment.summary: Antiproliferative activity against human MOLM14 cells by Cell-Titer Glo assay
- Format: functional, cell-based
- recorded.conditions: molm-14
measurement.name: IC50 (µM)
One number for each entry, in µM.

The compound listed as O=C(/C=C/c1ccc(O)c(O)c1/C=C/c1ccc(O)c(O)c1)O[C@H](Cc1ccc(O)c(O)c1)C(=O)O has a reported IC50 of 6.2

----------
Would you kindly list IC50 for each of these molecules?
- Test system: MOLM-13
- experiment.summary: Antiproliferative activity against human MOLM13 cells by Cell-Titer Glo assay
- Type: functional, cell-based
One number for each entry, in µM.

Please review the entries below; each comes with its answer.
>  <molecule>
O=C(O)/C=C/c1ccc(O)c(O)c1

>  <u>
µM

>  <IC50>
6.4

$$$$
>  <molecule>
O=C1C[C@H]2c3cc(O)c(O)cc3[C@H](c3ccc(O)c(O)c3)[C@H]2O1

>  <u>
µM

>  <IC50>
2.3

$$$$

Working through the 6 molecules below one at a time, give IC50 for each.
1. COC(=O)[C@H](O)Cc1ccc(O)c(O)c1
2. COC(=O)[C@H](O)Cc1ccc2c(c1)O[C@H]([C@H](OC)c1ccc(O)c(O)c1)O2
3. COC(=O)[C@@H](Cc1ccc(O)c(O)c1)OC(=O)/C=C/c1ccc(O)c(O)c1/C=C/c1ccc(O)c(O)c1
4. COC(=O)[C@@H](Cc1ccc(O)c(O)c1)OC(=O)/C=C/c1ccc(O)c(O)c1 [METHYL ROSMARINATE]
5. O=C(/C=C/c1ccc(O)c(O)c1/C=C/c1ccc(O)c(O)c1)O[C@H](Cc1ccc(O)c(O)c1)C(=O)O
6. O=C(/C=C/c1ccc(O)c(O)c1)O[C@H](Cc1ccc(O)c(O)c1)C(=O)O

1: 7.5; 2: 5.2; 3: 6.7; 4: 8.4; 5: 2.5; 6: 2.9
